B1: STK38L (parent)
chain: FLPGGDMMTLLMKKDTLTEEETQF

variants of: B1; assay: protein stability index of a GFP-peptide fusion (GPS, HEK-293T) (PSI 1-6); higher = more stable; details: c terminus: a fixed tail appended;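 further: lentivirally expressed fusions sorted by FACS into six bins by GFP to DsRed ratio, PSI derived from sequencing read proportions per bin multiplied by bin number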
reported_metric: protein stability index
Could you keep your reply to the number by itself?

Short answer for `E20F` : protein stability index was 1.97

Short answer for `E19C` : protein stability index was 1.73

Short answer for `F1M` : protein stability index was 4.39

Short answer for `E19T` : protein stability index was 1.51

Short answer for `E19Y` : protein stability index was 1.9

Short answer for `L2R` : protein stability index was 4.15

Short answer for `M7S` : protein stability index was 3.9

Short answer for `E20A` : protein stability index was 1.86

Short answer for `Q23Y` : protein stability index was 1.88

Short answer for `Q23M` : protein stability index was 2.4

Short answer for `E21A` : protein stability index was 1.94

Short answer for `L17N` : protein stability index was 2.78

Short answer for `E20V` : protein stability index was 1.79

Short answer for `M8I` : protein stability index was 2.22

Short answer for `E19N` : protein stability index was 1.72

Short answer for `L17R` : protein stability index was 2.39

Short answer for `M7Q` : protein stability index was 3.65

Short answer for `P3G` : protein stability index was 2.96

Short answer for `K13Y` : protein stability index was 2.02

Short answer for `T22G` : protein stability index was 2.08

Short answer for `L17D` : protein stability index was 3.2

Short answer for `T9D` : protein stability index was 4.35

Short answer for `L11Y` : protein stability index was 2.41

Short answer for `D6C` : protein stability index was 2.24

Short answer for `D15M` : protein stability index was 2.53

Short answer for `T22H` : protein stability index was 2.06

Short answer for `T9H` : protein stability index was 2.45

Short answer for `F24Y` : protein stability index was 2.52

Short answer for `L17Y` : protein stability index was 2

Short answer for `Q23S` : protein stability index was 2.91

Short answer for `K13I` : protein stability index was 1.87

Short answer for `L17V` : protein stability index was 1.94

Short answer for `T22D` : protein stability index was 2.12

Short answer for `P3N` : protein stability index was 1.89

Short answer for `L17F` : protein stability index was 1.96

Short answer for `E20N` : protein stability index was 2.5

Short answer for `F24I` : protein stability index was 2.77

Short answer for `K14V` : protein stability index was 1.62

Short answer for `Q23W` : protein stability index was 1.43

Short answer for `L2W` : protein stability index was 3

Short answer for `Q23T` : protein stability index was 2.09

Short answer for `L10R` : protein stability index was 3.32

Short answer for `G4F` : protein stability index was 2.41

Short answer for `M12G` : protein stability index was 3.72

Short answer for `T22V` : protein stability index was 2.23

Short answer for `L2P` : protein stability index was 2.65

Short answer for `L17P` : protein stability index was 2.46

Short answer for `L10H` : protein stability index was 3.38

Short answer for `E21P` : protein stability index was 1.65

Short answer for `T22C` : protein stability index was 2.05

Short answer for `G4L` : protein stability index was 2.42

Short answer for `E21R` : protein stability index was 2.21

Short answer for `G5M` : protein stability index was 3.13

Short answer for `T18V` : protein stability index was 2.49

Short answer for `M8T` : protein stability index was 4.3

Short answer for `K13C` : protein stability index was 1.67

Short answer for `G4Y` : protein stability index was 2.29

Short answer for `T18P` : protein stability index was 2.68

Short answer for `T16N` : protein stability index was 2.51

Short answer for `G4W` : protein stability index was 1.82

Short answer for `F1P` : protein stability index was 4.76

Short answer for `M8K` : protein stability index was 3.66

Short answer for `M8N` : protein stability index was 4.12

Short answer for `D15P` : protein stability index was 1.83

Short answer for `E21Q` : protein stability index was 2.04

Short answer for `Q23N` : protein stability index was 2.37

Short answer for `F1R` : protein stability index was 4.39

Short answer for `M12L` : protein stability index was 2.35

Short answer for `L2G` : protein stability index was 2.23

Short answer for `F1E` : protein stability index was 4.92

Short answer for `K13Q` : protein stability index was 2.42

Short answer for `E21V` : protein stability index was 1.71

Short answer for `T18N` : protein stability index was 2.24

Short answer for `T9V` : protein stability index was 1.81

Short answer for `T18F` : protein stability index was 1.73

Short answer for `F1H` : protein stability index was 4.48

Short answer for `E20H` : protein stability index was 1.97

Short answer for `T18L` : protein stability index was 2.15

Short answer for `D6W` : protein stability index was 1.4

Short answer for `D15L` : protein stability index was 2.56

Short answer for `D6K` : protein stability index was 1.98

Short answer for `F1V` : protein stability index was 4.67

Short answer for `P3S` : protein stability index was 1.4

Short answer for `L10F` : protein stability index was 2.75

Short answer for `F24D` : protein stability index was 2.97

Short answer for `L11V` : protein stability index was 3.18

Short answer for `T22E` : protein stability index was 3.21

Short answer for `F24M` : protein stability index was 2.4

Short answer for `T16Y` : protein stability index was 2.24

Short answer for `M7C` : protein stability index was 2.63

Short answer for `G5L` : protein stability index was 3.01
